# SYSTEM UNDER TEST: HiBiT-tagged BCL-xL (Homo sapiens)
# Construct: expressed in transfected cells; host or cells: NCI-H1650 (ATCC No. CRL-5883), engineered HiBiT cell line
# Sequence (Q07817 whole entry): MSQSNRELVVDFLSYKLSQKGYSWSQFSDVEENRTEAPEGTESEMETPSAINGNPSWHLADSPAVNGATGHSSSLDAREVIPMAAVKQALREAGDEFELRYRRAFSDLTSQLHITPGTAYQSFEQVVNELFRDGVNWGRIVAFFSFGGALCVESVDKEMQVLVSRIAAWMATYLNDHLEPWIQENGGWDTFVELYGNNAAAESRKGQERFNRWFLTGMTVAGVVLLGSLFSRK
# RUN DESCRIPTION: NCI-H1650 BCL-xL protein levels, Nano-Glo HiBiT Lytic Detection
# Format: cell-based
# MEASUREMENT SETUP: NCI-H1650 expressing HiBiT-tagged BCL-xL, overnight incubation, read-out: Bcl-xl HIBIT NCIH1650 DC50
QUANTITY NAME: DC50 (nM)

- Cc1ncsc1-c1ccc(CNC(=O)[C@@H]2C[C@@H](O)CN2C(=O)[C@@H](NC(=O)C2(F)CC2)C(C)(C)C)c(OCCCCCCCCCCCCCN(C)CCOC23CC4(C)CC(C)(CC(Cn5ncc(-c6ccc(N7CCCc8c7nnc(Nc7nc9ccccc9s7)c8C)nc6C(=O)O)c5C)(C4)C2)C3)c1: 5
- Cc1ncsc1-c1ccc([C@H](C)NC(=O)[C@@H]2C[C@@H](O)CN2C(=O)[C@@H](NC(=O)CCCCCCCCCCNC(=O)c2nc(N3CCCc4c3nnc(Nc3nc5ccccc5s3)c4C)ccc2-c2cnn(CC34CC5(C)CC(C)(C3)CC(OCCN3CCCC3)(C5)C4)c2C)C(C)(C)C)cc1: 1

====

# SYSTEM UNDER TEST: Bcl-xL (Homo sapiens, UniProt Q07817)
# Construct: Measured levels of Bcl-xL protein of HCT116 cells treated with the tested compounds; host or cells: HCT116
# Sequence (Q07817 whole entry): as above
# RUN DESCRIPTION: HCT116 Bcl-xL degradation, capillary-based immunoassay (WES)
# Type: cell-based
# MEASUREMENT SETUP: HCT-116; HCT116, 10 nM, 24 h; % of untreated cells
Listed next: entries and their corresponding remaining activity at 0.01 µM.
QUANTITY NAME: remaining activity at 0.01 µM

• Cc1ncsc1-c1ccc([C@H](C)NC(=O)[C@@H]2C[C@@H](O)CN2C(=O)[C@@H](NC(=O)CCCCCCCCN(C)CCOC23CC4(C)CC(C)(CC(Cn5ncc(-c6ccc(N7CCCc8c7nnc(Nc7nc9ccccc9s7)c8C)nc6C(=O)O)c5C)(C4)C2)C3)C(C)(C)C)cc1 = 54%
• Cc1ncsc1-c1ccc(CNC(=O)[C@@H]2C[C@@H](O)CN2C(=O)[C@@H](NC(=O)CCCC(=O)N2CCN(CC#Cc3ccc(OCCCc4sc(N5CCCc6c5nnc(Nc5nc7ccccc7s5)c6C)nc4C(=O)O)c(F)c3)CC2)C(C)(C)C)cc1 = 52%

====

# SYSTEM UNDER TEST: Bcl-xL (Homo sapiens, UniProt Q07817)
# Construct: Measured levels of Bcl-xL protein of HCT116 cells treated with the tested compounds; host or cells: HCT116
# RUN DESCRIPTION: HCT116 Bcl-xL degradation, capillary-based immunoassay (WES)
# Type: cell-based
# MEASUREMENT SETUP: HCT-116; HCT116, 100 nM, 24 h; % of untreated cells
Listed next: entries and their corresponding remaining activity at 0.1 µM.
QUANTITY NAME: remaining activity at 0.1 µM (%)

* Cc1ncsc1-c1ccc([C@H](C)NC(=O)[C@@H]2C[C@@H](O)CN2C(=O)[C@@H](NC(=O)CCCCCCCCN(C)CCOC23CC4(C)CC(C)(CC(Cn5ncc(-c6ccc(N7CCCc8c7nnc(Nc7nc9ccccc9s7)c8C)nc6C(=O)O)c5C)(C4)C2)C3)C(C)(C)C)cc1 | 19
* Cc1c(Nc2nc3ccccc3s2)nnc2c1CCCN2c1ccc(-c2cnn(CC34CC5(C)CC(C)(C3)CC(OCCN(C)CCOCCNc3cccc6c3C(=O)N(C3CCC(=O)NC3=O)C6=O)(C5)C4)c2C)c(C(=O)O)n1 (centres unmarked) | 41
* Cc1c(Nc2nc3ccccc3s2)nnc2c1CCCN2c1ccc(-c2cnn(CC34CC5(C)CC(C)(C3)CC(OCCN(C)CCCCCCCCCCOc3ccc6c(c3)C(=O)N(C3CCC(=O)NC3=O)C6=O)(C5)C4)c2C)c(C(=O)O)n1 (centres unmarked) | 23
* Cc1ncsc1-c1ccc([C@H](C)NC(=O)C2C[C@@H](O)CN2C(=O)C(NC(=O)CCCCCCC(=O)N2CCN(CC#Cc3ccc(OCCCc4sc(N5CCCc6c5nnc(Nc5nc7ccccc7s5)c6C)nc4C(=O)O)c(F)c3)CC2)C(C)(C)C)cc1 (stereo in doubt) | 7
* Cc1c(Nc2nc3ccccc3s2)nnc2c1CCCN2c1nc(C(=O)O)c(CCCOc2ccc(C#CCN3CCN(C(=O)CCCC(=O)NCCOCCNC(=O)COc4cccc5c4C(=O)N(C4CCC(=O)NC4=O)C5=O)CC3)cc2F)s1 (centres unmarked) | 51
* Cc1ncsc1-c1ccc(CNC(=O)[C@@H]2C[C@@H](O)CN2C(=O)[C@@H](NC(=O)CCCCCCC(=O)N2CCN(CC#Cc3ccc(OCCCc4sc(N5CCCc6c5nnc(Nc5nc7ccccc7s5)c6C)nc4C(=O)O)c(F)c3)CC2)C(C)(C)C)cc1 | 31
* Cc1c(Nc2nc3ccccc3s2)nnc2c1CCCN2c1ccc(-c2cnn(CC34CC5(C)CC(C)(C3)CC(OCCN(C)CCCCCCCCCC(=O)N3CCC(c6ccc7c(c6)CN(C6CCC(=O)NC6=O)C7=O)CC3)(C5)C4)c2C)c(C(=O)O)n1 (centres unmarked) | 90
* Cc1cc(N(C)c2nc(C(=O)O)c(CCCOc3ccc(C#CCN(C)CC(=O)NCCOCCNC(=O)COc4cccc5c4C(=O)N(C4CCC(=O)NC4=O)C5=O)cc3F)s2)nnc1Nc1nc2ccccc2s1 (centres unmarked) | 53

====

# SYSTEM UNDER TEST: Bcl-xL (Homo sapiens, UniProt Q07817)
# Construct: Measured levels of Bcl-xL protein of HCT116 cells treated with the tested compounds; host or cells: HCT116
# RUN DESCRIPTION: HCT116 Bcl-xL degradation, capillary-based immunoassay (WES)
# Type: cell-based
# MEASUREMENT SETUP: HCT116, 24 h, 9-point serial dilution
# Description: HCT116 cells were purchased from ATCC and cultivated in RPMI 1640 supplemented with 10% heat inactivated fetal bovine serum, penicillin (100 IU/mi), streptomycin (100 μg/ml) and L-glutamine (2 mM). […] Protein concentration in the supernatants was determined using the Pierce BCA protein assay kit (Thermo Fisher Scientific). […] Signals were detected with an HRP-conjugated secondary anti-rabbit antibody (#042-206, Proteinsimple) and were quantified using Compass software (version 4.0, Proteinsimple). […]
Label Met when DC50 is strictly below 3 nM; at or above that, label Not met.

• Cc1ncsc1-c1ccc([C@H](C)NC(=O)[C@@H]2C[C@@H](O)CN2C(=O)[C@@H](NC(=O)C2CCN(C(=O)CCCCCCCN(C)CCOC34CC5(C)CC(C)(CC(Cn6ncc(-c7ccc(N8CCCc9c8nnc(Nc8nc%10ccccc%10s8)c9C)nc7C(=O)O)c6C)(C5)C3)C4)CC2)C(C)(C)C)cc1 [Example 81] = Not met
• Cc1c(Nc2nc3ccccc3s2)nnc2c1CCCN2c1nc(C(=O)O)c(CCCOc2ccc(C#CCN3CCN(C(=O)CCCCCCC(=O)NCCOCCNC(=O)COc4cccc5c4C(=O)N(C4CCC(=O)NC4=O)C5=O)CC3)cc2F)s1 (stereo not drawn) [Example 25] = Not met
• Cc1ncsc1-c1ccc([C@H](C)NC(=O)[C@@H]2C[C@@H](O)CN2C(=O)[C@@H](NC(=O)CCOCCOCCOCCOCCN(C)CCOC23CC4(C)CC(C)(CC(Cn5ncc(-c6ccc(N7CCCc8c7nnc(Nc7nc9ccccc9s7)c8C)nc6C(=O)O)c5C)(C4)C2)C3)C(C)(C)C)cc1 [Example 89] = Not met
• Cc1ncsc1-c1ccc([C@H](C)NC(=O)[C@@H]2C[C@@H](O)CN2C(=O)[C@@H](NC(=O)CCCCCCN(C)CCOC23CC4(C)CC(C)(CC(Cn5ncc(-c6ccc(N7CCCc8c7nnc(Nc7nc9ccccc9s7)c8C)nc6C(=O)O)c5C)(C4)C2)C3)C(C)(C)C)cc1 [Example 3] = Not met
• Cc1cc(N(CCCCCn2cc(COCCOCCOCCNC(=O)COc3cccc4c3C(=O)N(C3CCC(=O)NC3=O)C4=O)nn2)c2ccc(-c3cnn(CC45CC6(C)CC(C)(C4)CC(OCCN(C)C)(C6)C5)c3C)c(C(=O)O)n2)nnc1Nc1nc2ccccc2s1 (stereo not drawn) [Example 63] = Not met
• Cc1c(Nc2nc3ccccc3s2)nnc2c1CCCN2c1ccc(-c2cnn(CC34CC5(C)CC(C)(C3)CC(OCCN(C)CCCCCCCCCCCCCOc3ccc6c(c3)C(=O)N(C3CCC(=O)NC3=O)C6=O)(C5)C4)c2C)c(C(=O)O)n1 (stereo not drawn) [Example 115] = Met
• Cc1ncsc1-c1ccc([C@H](C)NC(=O)[C@@H]2C[C@@H](O)CN2C(=O)[C@@H](NC(=O)CCCCCCCCN(C)CCOC23CC4(C)CC(C)(CC(Cn5ncc(-c6ccc(N7CCCc8c7nnc(Nc7nc9ccccc9s7)c8C)nc6C(=O)O)c5C)(C4)C2)C3)C(C)(C)C)cc1 [Example 5] = Met
• Cc1ncsc1-c1ccc(CNC(=O)[C@@H]2C[C@@H](O)CN2C(=O)[C@@H](NC(=O)C2(F)CC2)C(C)(C)C)c(OCCCCCCCCCCCCCN(C)CCOC23CC4(C)CC(C)(CC(Cn5ncc(-c6ccc(N7CCCc8c7nnc(Nc7nc9ccccc9s7)c8C)nc6C(=O)O)c5C)(C4)C2)C3)c1 [Example 85] = Met
• Cc1ncsc1-c1ccc(CNC(=O)[C@@H]2C[C@@H](O)CN2C(=O)[C@@H](NC(=O)C2(F)CC2)C(C)(C)SCCCCCCCCCCN(C)CCOC23CC4(C)CC(C)(CC(Cn5ncc(-c6ccc(N7CCCc8c7nnc(Nc7nc9ccccc9s7)c8C)nc6C(=O)O)c5C)(C4)C2)C3)cc1 [Example 94] = Met
• Cc1c(Nc2nc3ccccc3s2)nnc2c1CCCN2c1ccc(-c2cnn(CC34CC5(C)CC(C)(C3)CC(OCCN(C)CCCCCCCCCCCCCCOc3ccc6c(c3)C(=O)N(C3CCC(=O)NC3=O)C6=O)(C5)C4)c2C)c(C(=O)O)n1 (stereo not drawn) [Example 142] = Met
• Cc1ncsc1-c1ccc(CNC(=O)[C@@H]2C[C@@H](O)CN2C(=O)[C@@H](NC(=O)C2(F)CC2)C(C)(C)C)c(OCCCCCCCCCCCCCCCN(C)CCOC23CC4(C)CC(C)(CC(Cn5ncc(-c6ccc(N7CCCc8c7nnc(Nc7nc9ccccc9s7)c8C)nc6C(=O)O)c5C)(C4)C2)C3)c1 [Example 83] = Not met
• Cc1c(Nc2nc3ccccc3s2)nnc2c1CCCN2c1ccc(-c2cnn(CC34CC5(C)CC(C)(C3)CC(OCCN(C)CCCCCCCCOc3cccc6c3C(=O)N(C3CCC(=O)NC3=O)C6=O)(C5)C4)c2C)c(C(=O)O)n1 (stereo not drawn) [Example 143] = Not met
• Cc1ncsc1-c1ccc(CNC(=O)[C@@H]2C[C@@H](O)CN2C(=O)[C@@H](NC(=O)CCCC(=O)N2CCN(CC#Cc3ccc(OCCCc4sc(N5CCCc6c5nnc(Nc5nc7ccccc7s5)c6C)nc4C(=O)O)c(F)c3)CC2)C(C)(C)C)cc1 [Example 18] = Not met
• Cc1ncsc1-c1ccc(CNC(=O)[C@@H]2C[C@@H](O)CN2C(=O)[C@@H](NC(=O)C2(F)CC2)C(C)(C)C)c(OCCCCCCCCCN(C)CCOC23CC4(C)CC(C)(CC(Cn5ncc(-c6ccc(N7CCCc8c7nnc(Nc7nc9ccccc9s7)c8C)nc6C(=O)O)c5C)(C4)C2)C3)c1 [Example 72] = Not met
